Measured Target: Angiotensin II receptor (Rattus norvegicus) (UniProt P29089+P25095+P35351)
Method Notes: Inhibitory activity on AII (100 ng/kg iv)-induced pressor response after administration at 0.1 mg/kg po in conscious male Sprague-Dawley rats at 24 h.
Format: functional, organism-based
Parameters: dose 0.1 mg/kg
Known inhibition of a selection of compounds
Provide the reading as a plain figure in %.

[[record]]
compound = "CCOC(=O)OC(C)OC(=O)c1cccc2nc(OCC)n(Cc3ccc(-c4ccccc4-c4nn[nH]n4)cc3)c12 (stereo not drawn)"
measured_target = "Angiotensin II receptor (Rattus norvegicus) (UniProt P29089+P25095+P35351)"
measured = 7

[[record]]
compound = "CCCCc1nc2cccc(C(=O)OC)c2n1Cc1ccc(-c2ccccc2-c2nn[nH]n2)cc1"
measured_target = "Angiotensin II receptor (Rattus norvegicus) (UniProt P29089+P25095+P35351)"
measured = 11


# ---- query compound ----
Data request: Return reported inhibition. Input compound: CCOc1nc2cccc(C(=O)OC(C)OC(=O)OC(CC)CC)c2n1Cc1ccc(-c2ccccc2-c2nn[nH]n2)cc1 (stereo not drawn)
Data returned: 13
